Target: 15-lipoxygenase (Glycine max, UniProt P08170)
Construct: 15-lipoxygenase obtained from soybean; from tissue; host or cells: soybean
Sequence (P08170 whole entry): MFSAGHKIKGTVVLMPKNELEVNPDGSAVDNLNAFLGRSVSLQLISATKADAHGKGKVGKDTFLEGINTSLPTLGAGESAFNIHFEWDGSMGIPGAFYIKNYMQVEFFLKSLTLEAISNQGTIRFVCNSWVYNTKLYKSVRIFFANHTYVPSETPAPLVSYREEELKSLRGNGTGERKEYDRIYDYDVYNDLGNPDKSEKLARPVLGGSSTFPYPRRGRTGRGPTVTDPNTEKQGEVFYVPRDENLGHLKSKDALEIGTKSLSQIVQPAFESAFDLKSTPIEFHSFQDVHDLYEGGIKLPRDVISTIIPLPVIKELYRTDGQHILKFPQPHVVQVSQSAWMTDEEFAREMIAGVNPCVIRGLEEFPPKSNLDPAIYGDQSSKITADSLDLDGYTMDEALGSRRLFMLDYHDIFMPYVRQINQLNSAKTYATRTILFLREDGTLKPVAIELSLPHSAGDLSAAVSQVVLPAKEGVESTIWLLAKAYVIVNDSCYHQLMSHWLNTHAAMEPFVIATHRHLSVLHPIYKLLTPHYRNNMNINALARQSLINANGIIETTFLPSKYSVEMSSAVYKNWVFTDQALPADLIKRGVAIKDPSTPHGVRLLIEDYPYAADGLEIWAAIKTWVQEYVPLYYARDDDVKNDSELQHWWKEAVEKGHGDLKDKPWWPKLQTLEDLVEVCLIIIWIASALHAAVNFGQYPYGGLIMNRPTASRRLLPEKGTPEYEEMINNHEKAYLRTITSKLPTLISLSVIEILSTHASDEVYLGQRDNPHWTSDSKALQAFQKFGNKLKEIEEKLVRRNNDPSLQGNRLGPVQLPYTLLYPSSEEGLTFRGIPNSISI
Experiment: 15-lipoxygenase inhibition, enzyme obtained from soybean
Format: biochemical
Settings: 100 uM; read-out: Percent Inhibition, 15-lipoxygenase
measured_endpoint: inhibition at 100 µM (%)

> print(dat)
                                    compound     measured.endpoint  display.unit  observed.measurement
 1  O=c1ccc2cc(-c3ccccc3)ccc2n1O [Example 12, 6-Phenyl-1-hydroxyquinol-2(1H)-one]  inhibition at 100 µM             %                   100
 2  COc1ccc2c(ccc(=O)n2O)c1 [Example 10, 6-Methoxy-1-hydroxyquinol-2-(1H)-one]  inhibition at 100 µM             %                    94
 3  COC(=O)c1cc2ccccc2n(O)c1=O [Example 2, 3-Carbomethoxy-1-hydroxyquinol-2(1H)-one]  inhibition at 100 µM             %                    14
 4  O=c1ccc2cc(Cl)ccc2n1O [Example 8, 6-Chloro-1-hydroxyquinol-2(1H)-one]  inhibition at 100 µM             %                   100
 5                   COc1ccc2ccn(O)c(=O)c2c1  inhibition at 100 µM             %                    45
 6  O=c1c2ccccc2c(-c2ccccc2)cn1O [Example 31, 4-Phenyl-2-hydroxyquinol-1(2H)-one]  inhibition at 100 µM             %                    50
 7  O=c1ccc2cc([N+](=O)[O-])ccc2n1O [Example 11, 6-Nitro-1-hydroxyquinol-2(1H)-one]  inhibition at 100 µM             %                    32
 8  O=c1c2ccccc2c(Br)cn1O [Example 29, 4-Bromo-2-hydroxyquinol-1(2H)-one]  inhibition at 100 µM             %                    94
 9  O=c1c2ccccc2c2ccccc2n1O [Example 15, 3,4-Benzo-1-hydroxyquinol-2(1H)-one]  inhibition at 100 µM             %                    60
10  O=c1ccc2c([N+](=O)[O-])cccc2n1O [Example 6, 5-Nitro-1-hydroxyquinol-2(1H)-one]  inhibition at 100 µM             %                    98
11  O=c1ccc2ccccc2n1O [Example 1, 1-hydroxyquinol-2-(1H)-one]  inhibition at 100 µM             %                    95
12  CC(C)c1cc2ccccc2n(O)c1=O [Example 16, 3-Isopropyl-1-hydroxy-quinol-2(1H)--one]  inhibition at 100 µM             %                    93
13  Cc1ccc2ccc(=O)n(O)c2c1 [Example 13, 7-Methyl-1-hydroxyquinol-2(1H)-one]  inhibition at 100 µM             %                    97
14  O=c1c2ccccc2c([N+](=O)[O-])cn1O [Example 30, 4-Nitro-2-hydroxyquinol-1(2H)-one]  inhibition at 100 µM             %                    12

Data origin: patent US4761403A
